Recorded morphology score for the following compounds
system: Vero E6 infected with SARS-CoV-2; test: morphology score (similarity to uninfected cells); higher = more like uninfected cells; details: 24 h
readout-kind: morphology score

INSERT INTO assay_data (compound, value_measured) VALUES
  ('CC/C=C\C/C=C\C/C=C\C/C=C\C/C=C\C/C=C\CCC(=O)OCC [doconexent-ethyl-ester] (10 µM)', 0.193),
  ('C[C@]12CC[C@@H]3c4ccc(OC(=O)N(CCCl)CCCl)cc4CC[C@H]3[C@@H]1CC[C@@H]2OP(=O)(O)O [estramustine-phosphate] (10 µM)', 0.0729),
  ('O=C(O)c1cc(=O)c2ccccc2o1 [chromocarb] (10 µM)', -0.133),
  ('CCn1c(=O)c(-c2ccc(Cl)cc2Cl)cc2cnc(Nc3ccc(N4CCNCC4)c(F)c3)nc21 (0.833333 µM)', 0.097),
  ('CS(=O)(=O)c1ccc(-c2cn3ccccc3n2)cc1 [zolimidine] (10 µM)', 0.211),
  ('Cc1cc(CN)cc(C)c1NC(=O)c1ccc(-c2cc(Cl)ccc2Cl)o1 (10 µM)', 0.717),
  ('c1cc(-c2cnn3cc(-c4ccc(OCCN5CCCCC5)cc4)cnc23)ccn1 [dorsomorphin] (0.833333 µM)', 0.321),
  ('NS(=O)(=O)c1cc(-c2nnn[nH]2)c(NCc2cccs2)cc1Cl [azosemide] (10 µM)', 0.286),
  ('O=C(COc1cccc2c(=O)[nH]ccc12)c1ccccc1 (10 µM)', 0.0752),
  ('O=C(O)[C@@H](S)[C@@H](S)C(=O)O [dimercaptosuccinic-acid] (10 µM)', 0.102),
  ('CNC(=O)CN(CCN(CCN(CC(=O)[O-])CC(=O)NC)CC(=O)[O-])CC(=O)[O-].[Gd+3] [gadodiamide] (10 µM)', -0.0219),
  ('COc1cc(CCc2cc(NC(=O)c3ccc(N4CC(C)NC(C)C4)cc3)n[nH]2)cc(OC)c1 (stereo not drawn) (10 µM)', 0.373),
  ('COc1cc2nccc(Oc3ccc(NC(=O)C4(C(=O)Nc5ccc(F)cc5)CC4)cc3)c2cc1OC [cabozantinib] (0.833333 µM)', 0.329),
  ('COc1c(C)c2c(c(O)c1C/C=C(\C)CCC(=O)OCCN1CCOCC1)C(=O)OC2 [mycophenolate-mofetil] (10 µM)', -0.124),
  ('N#Cc1c(N)nc(SCC(N)=O)c(C#N)c1-c1ccc(OCC2CC2)cc1 (10 µM)', -0.0282),
  ('O=C(CCCN1CCC(O)(c2ccc(Cl)cc2)CC1)c1ccc(F)cc1 [haloperidol] (10 µM)', -0.0179),
  ('Cc1ccc(-c2cn3c4c(sc3n2)CCCC4)cc1 [pifithrin-cyclic] (10 µM)', -0.115),
  ('N#C/C(=C\c1ccc(O)c(O)c1)C(=O)NCCCc1ccccc1 (0.833333 µM)', -0.0747),
  ('CC[C@@H]1C(=O)OC[C@@H]1Cc1cncn1C [pilocarpine] (10 µM)', -0.105),
  ('c1ccc(C(NCc2cccnc2)(c2ccccc2)c2ccccc2)cc1 (10 µM)', -0.069),
  ('CCC1(C2=NCCN2)Cc2ccccc2O1 (stereo not drawn) [efaroxan] (10 µM)', 0.165),
  ('C=C1/C(=C\C=C2/CCC[C@]3(C)[C@@H]([C@H](C)CCCC(O)(C(F)(F)F)C(F)(F)F)CC[C@@H]23)C[C@@H](O)C[C@@H]1O [falecalcitriol] (10 µM)', 0.0244),
  ('CN(C)C[C@H](O)Cn1c2ccc(Br)cc2c2cc(Br)ccc21 (racemic) [wiskostatin] (0.833333 µM)', 0.146),
  ('O=C(Oc1ccc(Br)cc1)N1CCN2CCC1CC2 (10 µM)', 0.273),
  ('CCN1CCCC1CNC(=O)c1cc(S(N)(=O)=O)ccc1OC (stereo not drawn) [sulpiride] (10 µM)', -0.0261),
  ('N.N.O=C([O-])C[O-].[Pt+2] [nedaplatin] (10 µM)', 0.0896),
  ('O[C@@H]1CCCC[C@H]1N1CCC(c2ccccc2)CC1 (racemic) [vesamicol] (10 µM)', 0.23),
  ('C[C@@H](Oc1ccc(Cl)cc1)c1ccnc2ncnn12 (10 µM)', -0.0401),
  ('C[C@H]1N=C(N(C)C)N=C(N)N1 [imeglimin] (10 µM)', 0.0246),
  ('CC(C)[N+](C)(CCC(C(N)=O)(c1ccccc1)c1ccccc1)C(C)C [isopropamide-iodide] (10 µM)', 0.192),
  ('COc1cc(C[C@H]2c3cc(OC)c(OC)cc3CCN2C)c(Oc2cc3c(cc2OC)-c2c(OC)c(OC)cc4c2[C@H](C3)N(C)CC4)cc1OC [thaliblastine] (10 µM)', 0.443),
  ('CN(C)C(=N)NCCC[C@H](N)C(=O)O [asymmetrical-dimethylarginine] (10 µM)', 0.217),
  ('CCCCCCCCCCCCCCCC(=O)OC(CC(=O)[O-])C[N+](C)(C)C (stereo not drawn) [palmitoylcarnitine] (0.833333 µM)', -0.0181);
